Reference source: PubChem BioAssay

Field: composite z-score. Provide a value for each of the compounds that follow.
biological target: Dihydroorotate dehydrogenase (quinone), mitochondrial (Plasmodium falciparum (isolate 3D7)); assay: inhibition of P. falciparum DHODH – biochemical, C-terminal His tag, absorbance 600 nm, primary screen (AID 1175); details: PfDHODH enzyme, DCIP absorbance 600 nm; higher = more signal, called active from +8 up or from −8 down;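 further: recombinant parasite enzyme with a five histidine tag at its C terminus; test concentration not given here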
Calls of active or inactive are those of the source.

q: Can you share its composite z-score? I mean this compound: `CCOC(=O)C[C@H]1[C@H](OC(=O)c2cc3ccccc3oc2=O)[C@@H](NC(=O)c2ccccc2)c2cc(OCCCO)ccc2N1C(=O)c1ccccc1`
a: -3.31 (inactive)

q: Can you share its composite z-score? I mean this compound: `COc1ccccc1CN1C(=O)c2ccccc2[C@](Cc2ccccc2I)(C(=O)O)[C@@H]1c1ccc(CO)cc1`
a: -0.0436 (inactive)

q: Can you share its composite z-score? I mean this compound: `COc1cccc(C)c1NC(=O)O[C@H]1[C@H](OC(=O)Nc2ccccc2-c2ccccc2)[C@H](OC(=O)Nc2ccccc2-c2ccccc2)[C@@H](OC)O[C@@H]1CO`
a: -0.0569 (inactive)

Now take the following compound into account.
q: Can you share its composite z-score? I mean this compound: `C=CCNC(=O)[C@@H]1[C@H]2C(=O)O[C@H](c3ccccc3)[C@H](c3ccccc3)N2[C@H](c2ccc(OCCO)cc2)[C@@]12C(=O)N(C(=O)OCCOC)c1ccc(C#Cc3ccc(OC)cc3)cc12`
a: -0.0464 (inactive)
